target: T1, recombinant human MCL-1ΔNΔC (amino acids 172-320) (human, UniProt Q07820 172-320); experiment: fluorescence polarization (FPA), FITC-SAHB, dilution series of MCL-1ΔNΔC [top panel]
T1 construct: also called rMCL-1; MCL-1NC
T1 sequence (Q07820 172-320 limits assumed, stated change not applied): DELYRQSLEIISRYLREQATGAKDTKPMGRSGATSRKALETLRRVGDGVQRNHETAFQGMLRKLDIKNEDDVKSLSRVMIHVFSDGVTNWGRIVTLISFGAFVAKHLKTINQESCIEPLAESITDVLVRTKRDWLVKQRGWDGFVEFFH
Bridges are numbered along the chain shown (N, C = ends). Where no end group is shown, it is not given here. [ ]: non-standard residue; d: D form. The star is where a group is joined. FITC = O=C1OC2(c3ccc(O)cc3Oc3cc(O)ccc32)c2ccc(NC(=S)*)cc21; S5 = C=CCCC[C@](C)(N)C(=O)O; Nle = CCCC[C@H](N)C(=O)O
I'd appreciate it if you could supply Kd values for the items below.
One number for each entry, in nM.

>  <BINDER>
{FITC}-QWAREIGAQLR[S5][Nle]AD[S5]LNAQY (staple 12-16, domain: BH3) [PUMA SAHB]

>  <READING UNIT>
nM

>  <Kd>
14

$$$$

[Q] Fill blank: measured Kd of the binder {FITC}-DIIRNIARHLA[S5]VGD[S5][Nle]DRSIRR (staple 12-16, domain: BH3) [BID SAHB] is ____.
[A] 50

// provenance: patent US20120172285A1
